# maps each entry to its MIC (μg/mL) Streptococcus pneumoniae A28272
Tested on: Streptococcus pneumoniae A28272
Assay: MIC, broth micro dilution assay (NCCLS)
Format: cell-based
Conditions: 50% Mueller-Hinton medium and 50% Todd Hewitt medium, 35° C., 18 hours
Response body: numeric value in µg/mL, unit text excluded.

COMPOUND	OBSERVED_RESULT
C=C(NC(=O)c1csc(-c2nc3c(cc2OP(=O)(OCc2ccccc2)OCc2ccccc2)-c2nc(cs2)C(=O)NC(C(C)O)C(=O)NC(=C(C)OC)c2nc(cs2)C(=O)NC2c4nc(cs4)C(=O)NC(COC(=O)c4c5c6c(cccc6n4O)COC(=O)C(OC4CC(C)(O)C(N(C)C)C(C)O4)C2OC5)c2nc-3cs2)n1)C(N)=O (stereo not shown)	0.125

Query: Item C=C(NC(=O)c1csc(-c2nc3c(cc2O)-c2nc(cs2)C(=O)NC(C(C)O)C(=O)NC(=C(C)OC)c2nc(cs2)C(=O)NC2c4nc(cs4)C(=O)NC(COC(=O)c4c5c6c(cccc6n4OCC(=O)OC)COC(=O)C(OC4CC(C)(O)C(N(C)C)C(C)O4)C2OC5)c2nc-3cs2)n1)C(N)=O (stereo not shown) has what recorded MIC (μg/mL) Streptococcus pneumoniae A28272?
Reply: 0.001

Query: Entry C=C(NC(=O)c1csc(-c2nc3c(cc2O)-c2nc(cs2)C(=O)NC(C(C)O)C(=O)NC(=C(C)OC)c2nc(cs2)C(=O)NC2c4nc(cs4)C(=O)NC(COC(=O)c4c5c6c(cccc6n4OC(=O)NCCCC)COC(=O)C(OC4CC(C)(O)C(N(C)C)C(C)O4)C2OC5)c2nc-3cs2)n1)C(N)=O (stereo not shown) has what MIC (μg/mL) Streptococcus pneumoniae A28272?
Reply: 0.007

Query: Can you share its MIC (μg/mL) Streptococcus pneumoniae A28272? I mean this compound: C=C(NC(=O)c1csc(-c2nc3c(cc2OCC(N)=O)-c2nc(cs2)C(=O)NC(C(C)O)C(=O)NC(=C(C)OC)c2nc(cs2)C(=O)NC2c4nc(cs4)C(=O)NC(COC(=O)c4c5c6c(cccc6n4OCOCC[Si](C)(C)C)COC(=O)C(OC4CC(C)(O)C(N(C)C)C(C)O4)C2OC5)c2nc-3cs2)n1)C(N)=O (stereo not shown)
Reply: 0.06

Query: Requested read-out: MIC (μg/mL) Streptococcus pneumoniae A28272. Entry: C=C(NC(=O)c1csc(-c2nc3c(cc2OCC(=O)OCCO)-c2nc(cs2)C(=O)NC(C(C)O)C(=O)NC(=C(C)OC)c2nc(cs2)C(=O)NC2c4nc(cs4)C(=O)NC(COC(=O)c4c5c6c(cccc6n4OCC(=O)OCCO)COC(=O)C(OC4CC(C)(O)C(N(C)C)C(C)O4)C2OC5)c2nc-3cs2)n1)C(N)=O (stereo not shown)
Reply: 0.06

Query: What does the record list as MIC (μg/mL) Streptococcus pneumoniae A28272 for C=C(NC(=O)c1csc(-c2nc3c(cc2O)-c2nc(cs2)C(=O)NC(C(C)O)C(=O)NC(=C(C)OC)c2nc(cs2)C(=O)NC2c4nc(cs4)C(=O)NC(COC(=O)c4c5c6c(cccc6n4OC(=O)N(C)CCO)COC(=O)C(OC4CC(C)(O)C(N(C)C)C(C)O4)C2OC5)c2nc-3cs2)n1)C(N)=O (stereo not shown) ?
Reply: 0.0005

Query: Looking for the measured MIC (μg/mL) Streptococcus pneumoniae A28272 of C=C(NC(=O)c1csc(-c2nc3c(cc2O)-c2nc(cs2)C(=O)NC(C(C)O)C(=O)NC(=C(C)OC)c2nc(cs2)C(=O)NC2c4nc(cs4)C(=O)NC(COC(=O)c4c5c6c(cccc6n4OCCCN)COC(=O)C(OC4CC(C)(O)C(N(C)C)C(C)O4)C2OC5)c2nc-3cs2)n1)C(N)=O (stereo not shown) , can you help?
Reply: 0.06

Query: Give its MIC (μg/mL) Streptococcus pneumoniae A28272 value. Item: C=C(NC(=O)c1csc(-c2nc3c(cc2OCC(=O)NCCNC(=O)OC(C)(C)C)-c2nc(cs2)C(=O)NC(C(C)O)C(=O)NC(=C(C)OC)c2nc(cs2)C(=O)NC2c4nc(cs4)C(=O)NC(COC(=O)c4c5c6c(cccc6n4OCC(=O)NCCNC(=O)OC(C)(C)C)COC(=O)C(OC4CC(C)(O)C(N(C)C)C(C)O4)C2OC5)c2nc-3cs2)n1)C(N)=O (stereo not shown)
Reply: 0.25

Query: Can you share its MIC (μg/mL) Streptococcus pneumoniae A28272? I mean this compound: C=C(NC(=O)c1csc(-c2nc3c(cc2OCCCS(=O)(=O)[O-])-c2nc(cs2)C(=O)NC(C(C)O)C(=O)NC(=C(C)OC)c2nc(cs2)C(=O)NC2c4nc(cs4)C(=O)NC(COC(=O)c4c5c6c(cccc6n4OCCCS(=O)(=O)[O-])COC(=O)C(OC4CC(C)(O)C(N(C)C)C(C)O4)C2OC5)c2nc-3cs2)n1)C(N)=O.[Na+].[Na+] (stereo not shown)
Reply: 0.5

Query: What value of MIC (μg/mL) Streptococcus pneumoniae A28272 has been recorded for this entry: C=C(NC(=O)c1csc(-c2nc3c(cc2O)-c2nc(cs2)C(=O)NC(C(C)O)C(=O)NC(=C(C)OC)c2nc(cs2)C(=O)NC2c4nc(cs4)C(=O)NC(COC(=O)c4c5c6c(cccc6n4OCCCl)COC(=O)C(OC4CC(C)(O)C(N(C)C)C(C)O4)C2OC5)c2nc-3cs2)n1)C(N)=O.Cl (stereo not shown)
Reply: 0.003

Query: Look up MIC (μg/mL) Streptococcus pneumoniae A28272 for this compound: C=C(NC(=O)c1csc(-c2nc3c(cc2O)-c2nc(cs2)C(=O)NC(C(C)O)C(=O)NC(=C(C)OC)c2nc(cs2)C(=O)NC2c4nc(cs4)C(=O)NC(COC(=O)c4c5c6c(cccc6n4OCCO)COC(=O)C(OC4CC(C)(O)C(N(C)C)C(C)O4)C2OC5)c2nc-3cs2)n1)C(N)=O (stereo not shown)
Reply: 0.007

Query: Endpoint output: MIC (μg/mL) Streptococcus pneumoniae A28272 of C=C(NC(=O)c1csc(-c2nc3c(cc2O)-c2nc(cs2)C(=O)NC(C(C)O)C(=O)NC(=C(C)OC)c2nc(cs2)C(=O)NC2c4nc(cs4)C(=O)NC(COC(=O)c4c5c6c(cccc6n4OCOCC[Si](C)(C)C)COC(=O)C(OC4CC(C)(O)C(N(C)C)C(C)O4)C2OC5)c2nc-3cs2)n1)C(N)=O (stereo not shown) . Value?
Reply: 0.03

Query: Which MIC (μg/mL) Streptococcus pneumoniae A28272 reading was recorded for the compound C=C(NC(=O)c1csc(-c2nc3c(cc2OCCCS(=O)(=O)[O-])-c2nc(cs2)C(=O)NC(C(C)O)C(=O)N/C(=C(\C)OC)c2nc(cs2)C(=O)NC2c4nc(cs4)C(=O)NC(COC(=O)c4c5c6c(cccc6n4O)COC(=O)C(OC4CC(C)(O)C(N(C)C)C(C)O4)C2OC5)c2nc-3cs2)n1)C(N)=O.[Na+] (stereo not shown) ?
Reply: 0.25
